Target: T1, GLP-1R Y145A (Homo sapiens)
T1 chain: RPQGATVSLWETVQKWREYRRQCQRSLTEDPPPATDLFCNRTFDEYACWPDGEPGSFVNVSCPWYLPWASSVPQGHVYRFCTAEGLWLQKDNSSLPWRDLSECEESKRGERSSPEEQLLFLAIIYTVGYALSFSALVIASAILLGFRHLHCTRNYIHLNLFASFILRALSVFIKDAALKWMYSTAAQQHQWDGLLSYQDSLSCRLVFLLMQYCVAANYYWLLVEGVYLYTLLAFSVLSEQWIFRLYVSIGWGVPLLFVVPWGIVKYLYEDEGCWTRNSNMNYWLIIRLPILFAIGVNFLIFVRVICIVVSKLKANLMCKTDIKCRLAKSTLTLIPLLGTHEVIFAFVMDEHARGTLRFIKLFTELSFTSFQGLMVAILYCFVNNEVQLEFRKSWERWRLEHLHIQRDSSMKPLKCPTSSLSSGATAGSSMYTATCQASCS
pIC50: −log10 of the molar value. No end group written: not given here.
Listing of entries alongside the reported pIC50.

{"binder": "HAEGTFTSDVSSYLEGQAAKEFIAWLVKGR (not fully specified (C-terminus)) [glucagon-like peptide-1]", "pIC50": 8.21}
{"binder": "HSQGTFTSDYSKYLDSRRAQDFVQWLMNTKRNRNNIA [oxyntomodulin]", "pIC50": 7.61}
